# Test name: Pharmacokinetic parameters of Mycophenolic acid following administration of 360 to 2160 mg Mycophenolic acid delayed-release tablets to renal transplant patients on Cyclosporine, USP MODIFIED based immunosuppression.
# Format: ADME, organism-based
# Cond: human, in vivo, po
Reported endpoint: CL/F (mL/min)

>>> df
                               given_smiles  meas_value
0  COc1c(C)c2c(c(O)c1C/C=C(\C)CCC(=O)O)C(=O)OC2         140

====

# Test name: Mean pharmacokinetic parameters of Mycophenolic acid following single oral administration of Mycophenolic acid delayed-release tablets to adult or pediatric (age range 5 to 16 years) renal transplant patients on Cyclosporine, USP MODIFIED based immunosuppression
# Assay type: ADME, organism-based
# Design: dose 450 mg/m-2, dose 1 g, dose 720 mg, route oral
# Cond: human, in vivo, dosed compound id 90, dosed compound name MYCOPHENOLATE MOFETIL, regimen Single dose, tissue Plasma, read-out: AUC(0-48)
Reported endpoint: AUC (ng·h/mL)

>>> df
                                   compound  meas_value
0  COc1c(C)c2c(c(O)c1C/C=C(\C)CCC(=O)O)C(=O)OC2 [MYCOPHENOLIC ACID]       42700

All figures here come from ChEMBL document CHEMBL3832026.
